system: Escherichia coli TOP10; test: shrunken log2 fold change of peptide-encoding DNA abundance (4.5 h post-induction vs induction); higher = less antimicrobial activity (less host growth inhibition); settings: time post-induction: 4.5 h; library: site-saturation at positions 5, 18, 19, 20
measurement kind: shrunken log2 fold change
Respond numerically, and do not add a unit to the figure.

residue sequence: RRIRCRPPRLPRPRPRPGGEPRP
shrunken log2 fold change: 0.538

Log: Escherichia coli TOP10, sequence RRIRCRPPRLPRPRPRPDSPPRP , shrunken log2 fold change = -0.353

Log: Escherichia coli TOP10, sequence RRIRLRPPRLPRPRPRPYSLPRP , shrunken log2 fold change = -0.0459

Log: Escherichia coli TOP10, sequence RRIRPRPPRLPRPRPRPSFIPRP , shrunken log2 fold change = -0.601

Log: Escherichia coli TOP10, sequence RRIRGRPPRLPRPRPRPCQAPRP , shrunken log2 fold change = -0.0272

Log: Escherichia coli TOP10, sequence RRIRYRPPRLPRPRPRPQACPRP , shrunken log2 fold change = 0.00187

Log: Escherichia coli TOP10, sequence RRIRWRPPRLPRPRPRPNDWPRP , shrunken log2 fold change = 0.00443

Log: Escherichia coli TOP10, sequence RRIRERPPRLPRPRPRPTTEPRP , shrunken log2 fold change = -0.0421

Log: Escherichia coli TOP10, sequence RRIRLRPPRLPRPRPRPEHTPRP , shrunken log2 fold change = 0.0956

Log: Escherichia coli TOP10, sequence RRIRNRPPRLPRPRPRPMEVPRP , shrunken log2 fold change = -0.052

Log: Escherichia coli TOP10, sequence RRIRLRPPRLPRPRPRPAHKPRP , shrunken log2 fold change = 0.384

Log: Escherichia coli TOP10, sequence RRIRPRPPRLPRPRPRPDEVPRP , shrunken log2 fold change = 0.188

Log: Escherichia coli TOP10, sequence RRIRKRPPRLPRPRPRPKPYPRP , shrunken log2 fold change = 0.307

Log: Escherichia coli TOP10, sequence RRIRNRPPRLPRPRPRPVSKPRP , shrunken log2 fold change = 0.124

Log: Escherichia coli TOP10, sequence RRIRKRPPRLPRPRPRPIYHPRP , shrunken log2 fold change = -0.472

Log: Escherichia coli TOP10, sequence RRIRRRPPRLPRPRPRPQPNPRP , shrunken log2 fold change = 0.355

---

Reported shrunken log2 fold change by item:
tested on: Escherichia coli TOP10; assay: shrunken log2 fold change of peptide-encoding DNA abundance (4.5 h post-induction vs induction); higher = less antimicrobial activity (less host growth inhibition); conditions: time post-induction: 4.5 h; library: site-saturation at positions 5, 18, 19, 20

residue sequence: RRIRARPPRLPRPRPRPFRDPRP
target or test system: Escherichia coli TOP10
shrunken log2 fold change: -0.169

In plain terms, RRIRSRPPRLPRPRPRPACRPRP has a documented shrunken log2 fold change of 0.212

In plain terms, RRIRVRPPRLPRPRPRPMVDPRP has a documented shrunken log2 fold change of -0.0954

In plain terms, RRIRGRPPRLPRPRPRPAQDPRP has a documented shrunken log2 fold change of 0.836

---

system: Escherichia coli TOP10; experiment: shrunken log2 fold change of peptide-encoding DNA abundance (4.5 h post-induction vs induction); higher = less antimicrobial activity (less host growth inhibition); settings: time post-induction: 4.5 h; library: site-saturation at positions 5, 18, 19, 20
measurement kind: shrunken log2 fold change
Respond numerically, and do not add a unit to the figure.

Reference set (5 entries):
residue sequence: RRIRQRPPRLPRPRPRPSALPRP
measurement kind: shrunken log2 fold change
result number: -0.0016
--
residue sequence: RRIRQRPPRLPRPRPRPTHTPRP
measurement kind: shrunken log2 fold change
result number: 0.258
--
residue sequence: RRIRERPPRLPRPRPRPWNGPRP
measurement kind: shrunken log2 fold change
result number: 0.208
--
residue sequence: RRIRDRPPRLPRPRPRPAPCPRP
measurement kind: shrunken log2 fold change
result number: 0.658
--
residue sequence: RRIRQRPPRLPRPRPRPEKQPRP
measurement kind: shrunken log2 fold change
result number: -0.267

Log: Escherichia coli TOP10, sequence RRIRQRPPRLPRPRPRPCFGPRP , shrunken log2 fold change = 0.0162

Log: Escherichia coli TOP10, sequence RRIRNRPPRLPRPRPRPVQYPRP , shrunken log2 fold change = -0.000777

Log: Escherichia coli TOP10, sequence RRIRIRPPRLPRPRPRPLLYPRP , shrunken log2 fold change = 0.47

Log: Escherichia coli TOP10, sequence RRIRQRPPRLPRPRPRPRNPPRP , shrunken log2 fold change = 0.375

Log: Escherichia coli TOP10, sequence RRIRMRPPRLPRPRPRPNKQPRP , shrunken log2 fold change = 0.0442

Log: Escherichia coli TOP10, sequence RRIRRRPPRLPRPRPRPKTNPRP , shrunken log2 fold change = 0.221

Log: Escherichia coli TOP10, sequence RRIRHRPPRLPRPRPRPMSLPRP , shrunken log2 fold change = -0.00613

---

test system: Escherichia coli TOP10; assay: shrunken log2 fold change of peptide-encoding DNA abundance (4.5 h post-induction vs induction); higher = less antimicrobial activity (less host growth inhibition); details: time post-induction: 4.5 h; library: site-saturation at positions 5, 18, 19, 20
measurement kind: shrunken log2 fold change

residue sequence: RRIRFRPPRLPRPRPRPQTHPRP
target or test system: Escherichia coli TOP10
measurement kind: shrunken log2 fold change
result: -0.151

residue sequence: RRIRDRPPRLPRPRPRPTHDPRP
target or test system: Escherichia coli TOP10
measurement kind: shrunken log2 fold change
result: 0.666

residue sequence: RRIRPRPPRLPRPRPRPTPHPRP
target or test system: Escherichia coli TOP10
measurement kind: shrunken log2 fold change
result: 0.373

residue sequence: RRIRQRPPRLPRPRPRPDFNPRP
target or test system: Escherichia coli TOP10
measurement kind: shrunken log2 fold change
result: -0.164

residue sequence: RRIRDRPPRLPRPRPRPMYDPRP
target or test system: Escherichia coli TOP10
measurement kind: shrunken log2 fold change
result: -0.208

Log: Escherichia coli TOP10, sequence RRIRSRPPRLPRPRPRPWAQPRP , shrunken log2 fold change = -0.0414

Log: Escherichia coli TOP10, sequence RRIRRRPPRLPRPRPRPGYWPRP , shrunken log2 fold change = 0.535

---

Reported shrunken log2 fold change by item:
test system: Escherichia coli TOP10; assay: shrunken log2 fold change of peptide-encoding DNA abundance (4.5 h post-induction vs induction); higher = less antimicrobial activity (less host growth inhibition); conditions: time post-induction: 4.5 h; library: site-saturation at positions 5, 18, 19, 20
Respond numerically, and do not add a unit to the figure.

Reference set (3 entries):
residue sequence: RRIRSRPPRLPRPRPRPKRPPRP
shrunken log2 fold change: 0.413
--
residue sequence: RRIRGRPPRLPRPRPRPAFAPRP
shrunken log2 fold change: 0.89
--
residue sequence: RRIRGRPPRLPRPRPRPTQAPRP
shrunken log2 fold change: 1.37

In plain terms, RRIRLRPPRLPRPRPRPIEYPRP has a documented shrunken log2 fold change of -0.426

In plain terms, RRIRMRPPRLPRPRPRPEFVPRP has a documented shrunken log2 fold change of 0.383

In plain terms, RRIRQRPPRLPRPRPRPEWFPRP has a documented shrunken log2 fold change of -0.00295

In plain terms, RRIRVRPPRLPRPRPRPPMYPRP has a documented shrunken log2 fold change of -0.366

In plain terms, RRIRVRPPRLPRPRPRPQVRPRP has a documented shrunken log2 fold change of 0.0179

---

system: Escherichia coli TOP10; assay: shrunken log2 fold change of peptide-encoding DNA abundance (4.5 h post-induction vs induction); higher = less antimicrobial activity (less host growth inhibition); conditions: time post-induction: 4.5 h; library: site-saturation at positions 5, 18, 19, 20;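 also: peptides expressed intracellularly from a pBAD plasmid library in pooled LB shake-flask culture, induced with 0.3% L-arabinose, DNA abundance read by NGS, three biological replicates, DESeq2 with apeglm shrinkage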
Reported shrunken log2 fold change by item:

Reference set (10 entries):
residue sequence: RRIRHRPPRLPRPRPRPFRPPRP
shrunken log2 fold change: -0.188
--
residue sequence: RRIRWRPPRLPRPRPRPQNQPRP
shrunken log2 fold change: -0.265
--
residue sequence: RRIRCRPPRLPRPRPRPDCGPRP
shrunken log2 fold change: -0.169
--
residue sequence: RRIRYRPPRLPRPRPRPSACPRP
shrunken log2 fold change: -0.301
--
residue sequence: RRIRCRPPRLPRPRPRPVYIPRP
shrunken log2 fold change: -0.756
--
residue sequence: RRIRVRPPRLPRPRPRPQSMPRP
shrunken log2 fold change: 0.229
--
residue sequence: RRIRSRPPRLPRPRPRPYCGPRP
shrunken log2 fold change: -0.726
--
residue sequence: RRIRTRPPRLPRPRPRPWVHPRP
shrunken log2 fold change: -0.0467
--
residue sequence: RRIRNRPPRLPRPRPRPMMHPRP
shrunken log2 fold change: -0.25
--
residue sequence: RRIRPRPPRLPRPRPRPKNYPRP
shrunken log2 fold change: -0.428

In plain terms, RRIRNRPPRLPRPRPRPHMLPRP has a documented shrunken log2 fold change of -0.954

In plain terms, RRIRWRPPRLPRPRPRPDLEPRP has a documented shrunken log2 fold change of 0.974

In plain terms, RRIRYRPPRLPRPRPRPNHKPRP has a documented shrunken log2 fold change of -1.3

In plain terms, RRIRARPPRLPRPRPRPWVWPRP has a documented shrunken log2 fold change of 0.596

In plain terms, RRIRDRPPRLPRPRPRPEQYPRP has a documented shrunken log2 fold change of 0.215

Origin of values: the supplement of paper PMC9112550
